- Tested on: SW-620
- Measurement notes: NCI tumour cell line growth inhibition, 48 h
Activity calls are given as the source filed them. Rule as the data show it: active = GI50 up to about 1.1 µM and inactive = higher.
Give one outcome, nothing more. List: Yes (active), No (inactive)

Task: State the result this test recorded for `Nc1nc[n+](Cc2ccccc2)c2ncn(Cc3ccccc3)c12` .
Output: No

Task: State the result this test recorded for NC(CSC1c2ccccc2-c2ccccc21)C(=O)O (stereo not drawn) .
Output: No

Task: State the result this test recorded for `C[N+](C)(N)Cc1nc(-c2ccc(Cl)cc2)no1` .
Output: No

Task: State the result this test recorded for `CC(O)=C1C(=O)CCC1=O` .
Output: No

Task: State the result this test recorded for NC1CC(=O)c2sccc21 (stereo not drawn) .
Output: No

Task: State the result this test recorded for `C=CCOc1ccc(C(/N=N\c2ccc(Cl)cc2)=N/NC(=O)c2ccccc2)cc1OC` .
Output: No

Task: State the result this test recorded for CCCCC/C=C1\CC(CO)(COC(=O)CC(C(C)C)C(C)C)OC1=O (stereo not drawn) .
Output: No

Task: State the result this test recorded for `O=C1/C(=C/c2cccc([N+](=O)[O-])c2)COc2ccc(Br)cc21` .
Output: No

Task: State the result this test recorded for CC1/C=C/[C@@]2(C)CCC(C(C)(C)O)C2C(O)C[C@](C)(O)/C=C/C1 (stereo partly drawn) .
Output: No

Task: State the result this test recorded for `O=c1ss/c(=N\c2ccccc2)n1-c1ccccc1` .
Output: No

Task: State the result this test recorded for COc1c(O)c(O)cc2c1-c1ccc(OC)c(=O)cc1C(NC(C)=O)CC2 (stereo not drawn) .
Output: No

Task: State the result this test recorded for `CN(CCCNC(=O)c1nn(-c2ccc(Cl)cc2Cl)c2c1Cc1ccccc1-2)CCCNC(=O)c1nn(-c2ccc(Cl)cc2Cl)c2c1Cc1ccccc1-2` .
Output: No

Task: State the result this test recorded for CCOc1ccccc1NC(=O)C(=O)C(C(=O)c1ccc2ccccc2c1)C1OC(=O)c2ccccc21 (stereo not drawn) .
Output: No

Task: State the result this test recorded for `CCC(=O)C1(c2ccccc2)CCN(C)CC1` .
Output: No

Task: State the result this test recorded for Nc1ccccc1C(=O)C(Br)C(Br)c1ccc2c(c1)OCO2 (stereo not drawn) .
Output: No

Task: State the result this test recorded for `Clc1ccc2c(NCCNC3CCCCC3)ccnc2c1` .
Output: No

Task: State the result this test recorded for C=C(Br)C(C)(Br)CCC(Br)C(C)(C)Br (stereo not drawn) .
Output: No

Task: State the result this test recorded for `O=C1c2c(O)cccc2C(C(=O)CCCC(=O)C2c3cccc(O)c3C(=O)c3c(O)cccc32)c2cccc(O)c21` .
Output: Yes

Task: State the result this test recorded for `COc1ccc(/C=C2\C(=O)NC(=O)c3ccccc32)cc1OC` .
Output: No

Task: State the result this test recorded for COc1c(OC(C)C)c(OC(C)C)c2oc(=O)n3c2c1C(c1ccccc1-n1c(C)ccc1C)C=C3 (stereo not drawn) .
Output: No

Task: State the result this test recorded for COc1cc2c(cc1OC)C(O)[C@H](Br)C(C)(C)O2 (stereo partly drawn) .
Output: No

Task: State the result this test recorded for Nc1nc(=O)c2cc(NCc3ccc(C(=O)NC(CCC(=O)O)C(=O)O)cc3)ccc2[nH]1 (stereo not drawn) .
Output: No

Task: State the result this test recorded for `CCOP(=O)(OCC)/C(C#N)=C/c1nccn1C` .
Output: No

Task: State the result this test recorded for `COc1cc2c(c3oc(-c4ccc5c(c4)OCO5)c(O)c(=O)c13)CCC(C)(C)O2` .
Output: No

Task: State the result this test recorded for `O=C(Cc1nc2ccc(C(=O)c3ccccc3)cc2nc1O)C(=O)Nc1ccc(Br)cc1` .
Output: No

Task: State the result this test recorded for `CCCc1nc(Cl)nc(Cl)c1Cl` .
Output: Yes

Task: State the result this test recorded for COC(=O)c1cccc(C)c1C1CN=NC12Cc1cc(C)cc(C)c1C2=O (stereo not drawn) .
Output: No

Task: State the result this test recorded for `O=C1C(Cl)=C(Cl)C(=O)C(CCNc2nccs2)=C1Cl` .
Output: No

Task: State the result this test recorded for `C=CC(=O)N1C/C(=C\c2ccc(F)cc2)C(=O)/C(=C/c2ccc(F)cc2)C1` .
Output: Yes

Task: State the result this test recorded for `O=C1C(Cl)=C(N2CCC[C@@H]2CO)C(=O)c2c(O)ccc(O)c21` .
Output: No

Task: State the result this test recorded for `Cc1ccc2nc3c(Cl)c(C)c(=O)cc-3sc2c1` .
Output: No

Task: State the result this test recorded for `NNC(=O)c1c(Cl)c(Cl)c(Cl)c(Cl)c1-c1nc2ccccc2[nH]1` .
Output: No

Task: State the result this test recorded for CN(C)CCN1C(=O)c2cccc3cc([N+](=O)[O-])cc(c23)C1=O [MITONAFIDE] .
Output: Yes

###

- Tested on: SR
- Measurement notes: NCI tumour cell line growth inhibition, 48 h
Calls of active or inactive are those of the source. Rule as the data show it: active = GI50 up to about 1.1 µM and inactive = higher.
Give one outcome, nothing more. List: active, inactive

Task: State the result this test recorded for `CCCCCCCCCCCCCCCCS(=O)(=O)c1ccc(NN)cc1` .
Output: inactive

Task: State the result this test recorded for `CCOc1ccc(/C=C(\Cl)c2ccc(OC)c(OC)c2)cc1` .
Output: inactive

Task: State the result this test recorded for `CCc1c[n+]([O-])c(C)cc1[N+](=O)[O-]` .
Output: inactive

Task: State the result this test recorded for `C=C1c2nc3ccccc3n2C=C(c2ccc(C)cc2)N1c1ccccc1` .
Output: active

Task: State the result this test recorded for `COP(=O)(Cc1ccc(/C=C/C#N)o1)OC` .
Output: inactive

Task: State the result this test recorded for `CCOC(=O)Oc1ccc2[nH]c3c(C)cc(N)c(C)c3c2c1` .
Output: inactive

Task: State the result this test recorded for `O=c1c2cc([N+](=O)[O-])cnc2sn1-c1ccc(Oc2ccccc2)cc1` .
Output: inactive

Task: State the result this test recorded for CC(=O)OC1COC(N2C(=O)/C(=N\NC(N)=S)c3cc(Br)ccc32)C(OC(C)=O)C1OC(C)=O (centres undefined) .
Output: inactive

Task: State the result this test recorded for O=C1OC(c2ccc(Cl)c3ccccc23)c2ccccc21 (centres undefined) .
Output: inactive

Task: State the result this test recorded for COCC(=O)OC1CCn2c1nc1c2C(=O)C(C)=C(NC(C)=O)C1=N (centres undefined) .
Output: inactive

Task: State the result this test recorded for CC1=CCN(c2ccccn2)OC1c1ccccc1 (centres undefined) .
Output: inactive

Task: State the result this test recorded for COc1ccc(N2C(=O)C3c4[nH]c5ccccc5c4C4CCCCCCCCCC4C3C2=O)cc1 (centres undefined) .
Output: inactive

Task: State the result this test recorded for CCOC(=O)C(NC(=O)CC)(Nc1ccccc1F)C(F)(F)F (centres undefined) .
Output: inactive

Task: State the result this test recorded for `COc1ccc(/C=C/C(=O)c2sc(-n3nc(-c4ccccc4)cc3-c3ccccc3)nc2C)cc1OC` .
Output: inactive

###

- Test system: HOP-92
- Measurement notes: NCI tumour cell line growth inhibition, 48 h
Activity calls are given as the source filed them. No stated cut-off is given here; in the data, active = GI50 up to about 1.1 µM and inactive = higher.
Give one outcome, nothing more. List: active, inactive

Task: State the result this test recorded for Nc1ccccc1C(=O)C(Br)C(Br)c1ccc2c(c1)OCO2 (stereo unspecified) .
Output: inactive

Task: State the result this test recorded for `CCCc1nc(Cl)nc(Cl)c1Cl` .
Output: active

Task: State the result this test recorded for CC1(O)CC23CC(O)C4(O)C(CC(O)C4(C)C)C(C)(O)C2CCC1C3O (stereo unspecified) .
Output: inactive

Task: State the result this test recorded for C[C@]12CCC(O)CC1=CC[C@@H]1[C@@H]2CC[C@]2(C)C(O)[C@H](n3ccnc3)C[C@@H]12 (stereo partly specified) .
Output: inactive

Task: State the result this test recorded for `C=CC[C@]1(C2=NC(C)(C)CO2)c2ccccc2-c2ccccc2[C@H]1C(C)=O` .
Output: inactive

Task: State the result this test recorded for `COP(=O)(Cc1ccc(/C=C/C#N)o1)OC` .
Output: inactive

###

- Test system: HCC 2998
- Measurement notes: NCI tumour cell line growth inhibition, 48 h
Calls of active or inactive are those of the source. No stated cut-off is given here; in the data, active = GI50 up to about 1.1 µM and inactive = higher. Non-standard residues stand in square brackets, D forms with d. Residues, ends and D or L forms follow the SMILES beside them. ΔPro = O=C(O)[CH]1C=CCN1
Give one outcome, nothing more. List: active, inactive

Task: State the result this test recorded for `C=C1c2nc3ccccc3n2C=C(c2ccc(C)cc2)N1c1ccccc1` .
Output: inactive

Task: State the result this test recorded for `CCN(CC)P(=O)(c1ccc2c(c1)OCCOCCOCCOCCO2)N(CC)CC` .
Output: inactive

Task: State the result this test recorded for `C/C(=N\N=C(N)N)c1c(C(=O)OCCCCCCOC(=O)c2nc3sccn3c2/C(C)=N/N=C(N)N)nc2sccn12` .
Output: inactive

Task: State the result this test recorded for `Cc1ccc2c(sc(-c3ccc4c(c3)sc(-c3ccc(N(C)C)cc3)[n+]4C)[n+]2C)c1S(=O)(=O)O.Cc1ccc2c(sc(-c3ccc4c(c3)sc(-c3ccc5c(c3)sc(-c3ccc(N(C)C)cc3)[n+]5C)[n+]4C)[n+]2C)c1S(=O)(=O)O` .
Output: inactive

Task: State the result this test recorded for COc1cc2c(cc1OC)C(CC(=O)NN=C(C)C)NCC2 (stereo not drawn) .
Output: inactive

Task: State the result this test recorded for C[N+]1(CC[N+]2(C)CCCC2c2cccnc2)CCCC1c1cccnc1 (stereo not drawn) .
Output: inactive

Task: State the result this test recorded for `O=C(Cc1cc[n+]([O-])cc1)C(=O)Nc1cc(Cl)c(Cl)cc1Cl` .
Output: inactive

Task: State the result this test recorded for `CN(C)CCCNC(=O)N/N=C/c1ccc([N+](=O)[O-])cc1` .
Output: inactive

Task: State the result this test recorded for `O=C1c2c(O)cccc2C(C(=O)CCCC(=O)C2c3cccc(O)c3C(=O)c3c(O)cccc32)c2cccc(O)c21` .
Output: active

Task: State the result this test recorded for `COc1ccc(/C=C/C(=O)c2ccc(Br)cc2)cc1` .
Output: inactive

Task: State the result this test recorded for `O=C1NC(=S)NC(=O)C1=CC1CC1` .
Output: inactive

Task: State the result this test recorded for `CCOc1ccc(/N=N/c2ccc3oc(=O)c(/C(C)=N\NC(=O)CC(=O)Nc4ccc(Cl)cc4)cc3c2)cc1` .
Output: inactive

Task: State the result this test recorded for `N#CC(C#N)=C1c2ccccc2C(=NN)c2ccccc21` .
Output: inactive

Task: State the result this test recorded for COC(=O)c1cccc(C)c1C1CN=NC12Cc1cc(C)cc(C)c1C2=O (stereo not drawn) .
Output: inactive

Task: State the result this test recorded for `C=CC(=O)N1C/C(=C\c2ccc(F)cc2)C(=O)/C(=C/c2ccc(F)cc2)C1` .
Output: active

Task: State the result this test recorded for CC(C)(C)OC(=O)C1/C(=C/CO)CN1C(=O)OC(C)(C)C (stereo not drawn) .
Output: inactive

Task: State the result this test recorded for `NC(=O)c1cccc([N+](=O)[O-])c1` .
Output: inactive

Task: State the result this test recorded for CN1CCc2ccccc2C1Cc1ccccc1NC(=O)c1sc2ccccc2c1Cl (stereo not drawn) .
Output: inactive

Task: State the result this test recorded for `O=C(CCc1ccc(O)c(O)c1)NCCc1ccc(O)c(O)c1` .
Output: inactive

Task: State the result this test recorded for COc1cc2c(cc1OC)C(O)[C@H](Br)C(C)(C)O2 (stereo partly drawn) .
Output: inactive

Task: State the result this test recorded for `CCOC(=O)/C(C[C@H]1OC(C)(C)O[C@@H]1[C@H]1COC(C)(C)O1)=N/O` .
Output: inactive

Task: State the result this test recorded for COc1cc(C2c3[nH]c4ccccc4c3C[C@H]3COC(=O)N23)cc(OC)c1OC (stereo partly drawn) .
Output: active

Task: State the result this test recorded for `CC(C)=CCC/C(C)=C/CC/C(C)=C/CC/C(C)=C/CC/C(C)=C/CC/C(C)=C/CC/C(C)=C/CC/C(C)=C/CC/C(C)=C/CO` .
Output: inactive

Task: State the result this test recorded for `CCOC(=O)c1csc(NC(=O)CN2CCN(C)CC2)n1` .
Output: inactive

Task: State the result this test recorded for CC1OC(OC2C(OC3CCC4(C)C(CCC5(C)C4CC=C4C6CC(C)(C)CCC6(C(=O)O)CCC45C)C3(C)CO)OCC(O)C2O)C(O)C(O)C1O (stereo not drawn) .
Output: inactive

Task: State the result this test recorded for `O=C(COC(c1ccc(F)cc1)c1ccc(F)cc1)N1CCN(CCCc2ccccc2)CC1` .
Output: inactive

Task: State the result this test recorded for c1cc2c3c(c1)c1cc4c(cc1c[n+]3CC2)OCO4 [ANHYDROLYCORINIUM CHLORIDE] .
Output: inactive

Task: State the result this test recorded for `O=C1N=C2Sc3ccc4ccccc4c3N2C1=O` .
Output: inactive

Task: State the result this test recorded for `O=c1c2ccccc2oc2c1ccc1ncccc12` .
Output: inactive

Task: State the result this test recorded for `C(#C[C@@]12CCC[C@@H]1NCO2)c1ccc2c(c1)OCO2` .
Output: inactive

Task: State the result this test recorded for O=C(O)C1C=CCN1C(=O)C1C=CCN1C(=O)C1C=CCN1 (stereo not drawn) (H-[ΔPro]-[ΔPro]-[ΔPro]-OH; configuration not given here) .
Output: inactive

Task: State the result this test recorded for `CCCNC1=C(C(=O)OCC)C(=O)CO1` .
Output: inactive

Task: State the result this test recorded for `O=C(O)[C@@H]1C[C@@H](O)CN1C(=O)OCc1ccccc1` .
Output: inactive
